- study.target: HSA (Homo sapiens)
- Sequence (P02768 25-609): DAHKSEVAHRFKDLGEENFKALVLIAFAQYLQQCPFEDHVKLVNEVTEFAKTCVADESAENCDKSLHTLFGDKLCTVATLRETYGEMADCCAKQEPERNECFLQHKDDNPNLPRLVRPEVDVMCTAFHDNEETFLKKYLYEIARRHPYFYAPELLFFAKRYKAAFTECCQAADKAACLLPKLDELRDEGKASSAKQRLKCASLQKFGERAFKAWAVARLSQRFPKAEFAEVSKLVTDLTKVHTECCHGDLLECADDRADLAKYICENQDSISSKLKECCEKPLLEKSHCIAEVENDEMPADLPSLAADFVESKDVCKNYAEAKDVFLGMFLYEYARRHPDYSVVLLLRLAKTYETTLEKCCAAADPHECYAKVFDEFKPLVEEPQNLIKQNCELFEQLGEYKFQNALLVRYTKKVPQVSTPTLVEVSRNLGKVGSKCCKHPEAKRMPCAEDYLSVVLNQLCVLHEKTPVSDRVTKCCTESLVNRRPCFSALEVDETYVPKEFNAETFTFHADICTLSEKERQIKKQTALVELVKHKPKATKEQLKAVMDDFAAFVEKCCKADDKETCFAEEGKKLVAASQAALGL
- measurement.protocol: Albumin binding affinity by surface plasmon resonance
- reported.conditions: SPR, BIAcoT200 system, HSA
Square brackets hold non-standard residues; d marks the D form. Ends that are not written are not given here. * marks the point of attachment. FITC = O=C1OC2(c3ccc(O)cc3Oc3cc(O)ccc32)c2ccc(NC(=S)*)cc21; Stearoyl = CCCCCCCCCCCCCCCCCC(=O)*; Myristoyl = CCCCCCCCCCCCCC(=O)*; Aib = CC(C)(N)C(=O)O; Ahx = NCCCCCC(=O)O
quantity: k a (M⁻¹ s⁻¹)
API: value field is a number in M⁻¹ s⁻¹; no unit string.

Value of k a reported for the substance {FITC-Ahx}-EYEEK(Stearoyl)YEGGGGSGGGGSFNPRH[Aib]EGTFTSDVSSYLEGQAAKEFIAWLVKGRG (N-terminus assumed) [PES15] is 21800

Looking up {FITC-Ahx}-EYK(Myristoyl)EEYEGGGGSGGGGSFNPRH[Aib]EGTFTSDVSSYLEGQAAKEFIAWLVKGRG (N-terminus assumed) [PES07] , I found its k a recorded as 8240

According to the records, this substance {FITC-Ahx}-EYEEK(Myristoyl)YEGGGGSGGGGSFNPRH[Aib]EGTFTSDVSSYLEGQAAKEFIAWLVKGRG (N-terminus assumed) [PES13] displays k a of 11000

So for {FITC-Ahx}-EYEEYK(Stearoyl)EGGGGSGGGGSFNPRH[Aib]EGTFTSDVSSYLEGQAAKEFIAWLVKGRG (N-terminus assumed) [PES18] , the logged k a turned out to be 11400

Entry {FITC-Ahx}-EYEK(Stearoyl)EYEGGGGSGGGGSFNPRH[Aib]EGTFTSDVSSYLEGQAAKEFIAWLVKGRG (N-terminus assumed) [PES12] ; k a = 21700
